meta.source: PubChem BioAssay AID463079

assay: ATP-evoked calcium signal inhibitors, parental CHO, primary screen, counter-screen for OX1R antagonist project, cell-based, fluorescence, Fluo-8 calcium dye (AID 463079); conditions: parental CHO-K1, ATP-induced calcium, Fluo-8 fluorescence; at 5.6 µM; active compounds read high;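 further: 0% = ATP-challenged DMSO wells and 100% = DMSO wells without ATP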
Screen size: about 330,000 compounds; about 2,000 (0.61%) were called active. What follows is part of a selection rich in actives, with near analogues and random picks from the rest.
metric: inhibition (%)
Give just the number in %; leave the unit off.

Recorded inhibition, per entry:
compound: Cc1nnc(C)c2c(C)n(N)c(C)c12
inhibition, %: 4.12
//
compound: CCOC(=O)c1sc(NC(=O)CSc2nc(C)cc(C(F)(F)F)n2)c(C#N)c1C
inhibition, %: 4.56
//
compound: COc1cc(C(=O)N2CCN(C/C=C/c3ccccc3)CC2)cc(OC)c1C
inhibition, %: -10.8
//
compound: CC(=O)Nc1ccc(S(=O)(=O)Oc2ccc(/C=N/N=C3/NC(=O)C(CC(=O)O)S3)cc2)cc1 (stereo not given)
inhibition, %: -3.01

Let us move to another entry and its inhibition.
In: What value of inhibition has been recorded for this entry: Cc1cc(C)cc(Oc2nc3c(C)cccn3c(=O)c2/C=C(\C#N)C(=O)NC2CCS(=O)(=O)C2)c1 (stereo not given)
Out: -10.7

###

experiment: ATP-evoked calcium signal inhibitors, parental CHO, primary screen, counter-screen for OX1R antagonist project, cell-based, fluorescence, Fluo-8 calcium dye (AID 463079); details: parental CHO-K1, ATP-induced calcium, Fluo-8 fluorescence; at 5.6 µM; active compounds read high;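 further: 0% = ATP-challenged DMSO wells and 100% = DMSO wells without ATP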
The whole screen tested about 330,000 compounds, of which about 2,000 (0.61%) were called active. Only a selection was taken, and actives are over-represented in it overall.
Would you mind sorting the entries by inhibition according to these classes? bucket 1 (below -10%), bucket 2 (-10% to below 30%), bucket 3 (30% or more)

Recorded results for 5 compounds are shown here.
compound: CCCCSc1nnc2c(n1)OC=Nc1ccccc1-2
group: bucket 2
//
compound: Cc1ccc(N2CCN(S(=O)(=O)N(C)C)CC2)cc1Cl
group: bucket 1
//
compound: CCN1/C(=C\c2ccc3ccccc3[n+]2CC)Sc2cc(C)ccc21
group: bucket 3
//
compound: CC(=O)c1c(C)n(-c2ccc(C)cc2)c2ccc(O)cc12
group: bucket 3
//
compound: CN1CCN(C(=O)N2c3ccccc3CCc3ccccc32)CC1
group: bucket 1

In: Which inhibition band matches Cc1cc2oc(=O)cc(-c3ccccc3)c2c(C)c1-c1ccc(OC(F)(F)F)cc1 ?
Out: bucket 1

In: Which inhibition band matches O=S(N1CCCCCC1)C12CC3CC(CC(C3)C1)C2 (stereo unspecified) ?
Out: bucket 2

In: Which inhibition band matches CCC(=O)N1CCN(c2ccccc2NC(=O)COc2cccc(C)c2C)CC1 ?
Out: bucket 1

In: Which inhibition band matches CN(C)S(=O)(=O)N1CCN(c2ccc([N+](=O)[O-])cc2)CC1 ?
Out: bucket 2

###

experiment: ATP-evoked calcium signal inhibitors, parental CHO, primary screen, counter-screen for OX1R antagonist project, cell-based, fluorescence, Fluo-8 calcium dye (AID 463079); conditions: parental CHO-K1, ATP-induced calcium, Fluo-8 fluorescence; at 5.6 µM; active compounds read high;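 further: 0% = ATP-challenged DMSO wells and 100% = DMSO wells without ATP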
Hit rate of the full screen: of about 330,000 compounds, about 2,000 (0.61%) were called active. This is one part of a sample in which actives are shown more often than they occur.
# cutoff 30% applies to inhibition; >= gives Y, < gives N

Recorded results for 4 compounds are shown here.
chemical string: CN1C(=O)c2cccc3c(N)ccc(c23)C1=O
group: Y
//
chemical string: COc1cc(C(=O)N2C(=O)c3cccc(N)c3C2=O)cc(OC)c1OC
group: N
//
chemical string: O=C(CNC(=O)C(c1ccccc1)c1ccccc1)N/N=C\c1ccc2c(c1)OCO2
group: N
//
chemical string: Cc1nn(C)cc1N1C(=O)c2cccc3c(N)ccc(c23)C1=O
group: Y

In: Check this compound for inhibition at or above 30%: Cc1nn(C)cc1C(=O)c1ccccc1
Out: N

###

assay: ATP-evoked calcium signal inhibitors, parental CHO, primary screen, counter-screen for OX1R antagonist project, cell-based, fluorescence, Fluo-8 calcium dye (AID 463079); conditions: parental CHO-K1, ATP-induced calcium, Fluo-8 fluorescence; at 5.6 µM;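 further: 0% = ATP-challenged DMSO wells and 100% = DMSO wells without ATP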
About 2,000 (0.61%) of roughly 330,000 compounds were called active.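 The calls were made as follows: active = inhibition above that plate's mean sample inhibition plus 3 SD (cut at about 26% in these data); inactive = the rest.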 The entries come from a sample that favours actives as a whole.
Your response should consist of one outcome taken from YES (active), NO (inactive)

Recorded results for 3 molecules are shown here.
chemical string: O=C(O)c1ccc2c3c(cccc13)C(=O)N(OS(=O)(=O)c1ccccc1)C2=O
group: NO
//
chemical string: CC(=O)Nc1ccccc1Sc1ccc2c3c(cccc13)C(=O)N(c1ccc(C)cc1)C2=O
group: NO
//
chemical string: CC[C@]12c3[nH]c4cc(CCC(=O)N(C)C)ccc4c3CCN1C(=O)[C@@H](CC(=O)NCc1ccco1)C[C@@H]2C(=O)N1CCN(C(=O)c2ccco2)CC1
group: NO

In: Just curious, what result did CC(C)Cc1cc(C(=O)Nc2cc(Br)ccc2O)no1 get here?
Out: YES

In: Just curious, what result did CC(C)Cc1cc(C(=O)NCCc2ccccc2)no1 get here?
Out: NO

###

Reported inhibition values for a set of compounds
assay: ATP-evoked calcium signal inhibitors, parental CHO, primary screen, counter-screen for OX1R antagonist project, cell-based, fluorescence, Fluo-8 calcium dye (AID 463079); conditions: parental CHO-K1, ATP-induced calcium, Fluo-8 fluorescence; at 5.6 µM; active compounds read high;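 further: 0% = ATP-challenged DMSO wells and 100% = DMSO wells without ATP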
In all, about 330,000 compounds went through this assay and about 2,000 (0.61%) were called active. Shown is part of a subset that was picked to be rich in actives.
Give just the number in %; leave the unit off.

Recorded inhibition, per entry:
chemical string: Fc1ccc2[nH]c3c(N4CCSCC4)ncnc3c2c1
measurement units: %
inhibition: 58.3
//
chemical string: O=C(Nc1cccc([N+](=O)[O-])c1)c1ccc2c(c1)OCO2
measurement units: %
inhibition: -1.24
//
chemical string: Cc1ccc(NC(=O)c2sccc2C)cc1[N+](=O)[O-]
measurement units: %
inhibition: -13
//
chemical string: COc1cc(OC)c2c(-c3cccc(-c4cccc(N)c4)c3)cc(=O)oc2c1
measurement units: %
inhibition: -15.7
//
chemical string: CC(C)(C)c1ccc(SCCc2ccncc2)cc1
measurement units: %
inhibition: 28.1
//
chemical string: COc1ccc(NS(=O)(=O)c2cc(NC(=O)C3CCCCC3)ccc2N2CCOCC2)cc1
measurement units: %
inhibition: 5.3

In: What value of inhibition has been recorded for this entry: CCNC(=S)N1CCN(CCN=CC2=C(O)CC(C)(C)CC2=O)CC1
Out: -4.83

In: What value of inhibition has been recorded for this entry: CN(C)C=NC(=O)c1cccn1-c1ncc(C(F)(F)F)cc1Cl
Out: 7.02

In: What value of inhibition has been recorded for this entry: N#Cc1ccc(Oc2ccc(C(F)(F)F)cc2NC(=O)c2ccc(F)cc2)cc1
Out: -13.8

In: What value of inhibition has been recorded for this entry: CCCCn1c(SCC(=O)N2CCCC2=O)nc2cc(S(N)(=O)=O)ccc21
Out: -0.51

In: What value of inhibition has been recorded for this entry: Cn1c(Cc2cccc3ccccc23)nnc1SCC(=O)N1CCN(c2cccc(Cl)c2)CC1
Out: -6.75

###

Reported inhibition values for a set of compounds
experiment: ATP-evoked calcium signal inhibitors, parental CHO, primary screen, counter-screen for OX1R antagonist project, cell-based, fluorescence, Fluo-8 calcium dye (AID 463079); settings: parental CHO-K1, ATP-induced calcium, Fluo-8 fluorescence; at 5.6 µM; active compounds read high;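 further: 0% = ATP-challenged DMSO wells and 100% = DMSO wells without ATP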
About 2,000 (0.61%) of roughly 330,000 compounds were called active. This is one part of a sample in which actives are shown more often than they occur.
Give just the number in %; leave the unit off.

compound: CCCCCCCCCCOC(=O)Cn1c(COc2cccc(OC)c2)[n+](C)c2ccccc21
inhibition [%]: 43.2
--
compound: COc1ccc(N2CCC(CNC(=S)Nc3c(C)cccc3C)C2)cc1 (configuration not stated)
inhibition [%]: -5.49
--
compound: CC(=O)N1c2ccc(S(=O)(=O)N3CCCC(C(=O)Nc4cccc(Cl)c4)C3)cc2CC1C (configuration not stated)
inhibition [%]: -6.72
--
compound: CC(=O)Oc1ccccc1C(=O)Nc1ncc([N+](=O)[O-])s1
inhibition [%]: 39
--
compound: CCOC(=O)Cn1c(-c2cccnc2Cl)nc2ccccc21
inhibition [%]: 6.66
--
compound: CC(=O)N1CCCc2cc(S(=O)(=O)N3CCCC(C(=O)N4CCN(c5cccc(Cl)c5)CC4)C3)ccc21 (configuration not stated)
inhibition [%]: 66.2

In: What value of inhibition has been recorded for this entry: O=C(CN1CCN(S(=O)(=O)c2cc(Cl)ccc2Cl)CC1)c1ccc(O)c(O)c1
Out: -11.1

In: What value of inhibition has been recorded for this entry: CCOc1ccccc1OCC(=O)Nc1ccccc1C(=O)NC1CC1
Out: 14.9

In: What value of inhibition has been recorded for this entry: CSc1ccc(S(=O)(=O)NCC(=O)OCC(=O)NC2(C#N)CCCCC2)cc1[N+](=O)[O-]
Out: -8.63
